- Subject Of Test: USP1 (construct USP1 (I-785, GG670, 671AA)/UAF1 (I-677)-Flag) (Homo sapiens (Human), UniProt O94782, G670A/G671A)
- Sequence (O94782 whole entry G670A/G671A): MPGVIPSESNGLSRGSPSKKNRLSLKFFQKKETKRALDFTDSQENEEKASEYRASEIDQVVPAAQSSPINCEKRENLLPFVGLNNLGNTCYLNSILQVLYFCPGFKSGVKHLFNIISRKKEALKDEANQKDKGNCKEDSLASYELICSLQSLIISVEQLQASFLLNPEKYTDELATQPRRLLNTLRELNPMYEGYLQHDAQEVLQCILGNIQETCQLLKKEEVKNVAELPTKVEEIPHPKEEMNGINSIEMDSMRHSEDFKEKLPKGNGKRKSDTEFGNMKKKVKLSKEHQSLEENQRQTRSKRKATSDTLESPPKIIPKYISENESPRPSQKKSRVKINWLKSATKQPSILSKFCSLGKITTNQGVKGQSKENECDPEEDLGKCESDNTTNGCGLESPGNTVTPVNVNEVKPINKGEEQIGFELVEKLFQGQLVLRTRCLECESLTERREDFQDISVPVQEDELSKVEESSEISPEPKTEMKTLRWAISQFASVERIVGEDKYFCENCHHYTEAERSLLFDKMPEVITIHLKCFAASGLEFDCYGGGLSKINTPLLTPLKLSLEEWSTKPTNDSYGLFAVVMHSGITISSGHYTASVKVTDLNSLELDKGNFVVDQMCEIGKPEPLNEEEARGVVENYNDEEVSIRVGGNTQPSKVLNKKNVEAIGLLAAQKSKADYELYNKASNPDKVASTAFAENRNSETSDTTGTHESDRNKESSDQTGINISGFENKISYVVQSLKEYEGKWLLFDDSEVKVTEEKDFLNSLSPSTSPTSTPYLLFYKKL
- Sequence (Q8TAF3 whole entry partner): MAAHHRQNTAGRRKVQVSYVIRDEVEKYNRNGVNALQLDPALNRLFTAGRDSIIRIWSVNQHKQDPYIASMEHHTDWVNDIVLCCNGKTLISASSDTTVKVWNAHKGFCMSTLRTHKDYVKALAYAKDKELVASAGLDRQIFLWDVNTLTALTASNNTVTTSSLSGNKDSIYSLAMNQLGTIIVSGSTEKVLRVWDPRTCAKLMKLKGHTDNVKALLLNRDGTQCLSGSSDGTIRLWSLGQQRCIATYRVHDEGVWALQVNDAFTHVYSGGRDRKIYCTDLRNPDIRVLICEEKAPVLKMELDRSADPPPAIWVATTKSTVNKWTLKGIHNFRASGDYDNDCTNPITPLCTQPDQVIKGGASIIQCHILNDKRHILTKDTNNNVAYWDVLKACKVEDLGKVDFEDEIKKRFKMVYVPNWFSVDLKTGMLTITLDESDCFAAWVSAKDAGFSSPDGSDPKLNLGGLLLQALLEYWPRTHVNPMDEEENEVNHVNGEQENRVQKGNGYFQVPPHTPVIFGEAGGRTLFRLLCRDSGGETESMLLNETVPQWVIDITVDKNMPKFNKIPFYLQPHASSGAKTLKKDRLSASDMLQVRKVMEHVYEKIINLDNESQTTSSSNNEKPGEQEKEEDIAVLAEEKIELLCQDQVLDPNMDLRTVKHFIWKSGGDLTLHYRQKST
- Assay Explanation: Ubiquitin-Rhodamine 110 assay for USP1 activity
- Test Parameters: USP1/UAF1 25 pM, Ub-Rh110 25 nM, 30 min preincubation
- Procedure: Example 53: Ubitquin-Rhodamine 110 Assay for USP1 Activity […] Nanoliter quantities of either an 8-point or 10-point, 3-fold serial dilution in DMSO was pre-dispensed into assay plates (Perkin Elmer, ProxiPlate-384 F Plus, #6008269) for a final test concentration range of either 25 μM to 11 nM or 25 μM to 1.3 nM, respectively. […] Fluorescence was read on the Envision (Excitation at 485 nm and Emission at 535 nm; Perkin Elmer) or on the PheraSTAR (Excitation at 485 nm and Emission at 535 nm; BMG Labtech). […]
Assay Metric: IC50

{"Smiles Entry": "CC(C)N(C)c1ncccc1-c1ncc2[nH]c(=O)n(Cc3ccc(-c4nc(C(F)(F)F)cn4C)cc3)c2n1", "Result": "50 to 200 nM"}
{"Smiles Entry": "CC(=O)Nc1cccc(Cn2c(=O)[nH]c3cnc(-c4ccccc4C(C)C)nc32)c1", "Result": "200 to 2000 nM"}
{"Smiles Entry": "CC(C)c1ccncc1-c1ncc2c(n1)n(Cc1ccc(-n3cccn3)cc1)c(=O)n2C", "Result": "> 2000 nM"}
{"Smiles Entry": "CC(C)c1ccccc1-c1ncc2c(n1)n(Cc1ccc(OCCN(C)C)cc1)c(=O)n2C", "Result": "50 to 200 nM"}
{"Smiles Entry": "CC(C)c1ccccc1-c1ncc2[nH]c(=O)n(Cc3ccc(-n4cccn4)cc3)c2n1", "Result": "< 50 nM"}
{"Smiles Entry": "Cc1scnc1-c1ccc(Cn2c(=O)[nH]c3cnc(-c4ccccc4C(C)C)nc32)cc1", "Result": "< 50 nM"}

* * *

- Subject Of Test: USP1 (construct USP1 (I-785, GG670, 671AA)/UAF1 (I-677)-Flag) (Homo sapiens (Human), UniProt O94782, G670A/G671A)
- Assay Explanation: Ubiquitin-Rhodamine 110 assay for USP1 activity
- Test Parameters: USP1/UAF1 25 pM, Ub-Rh110 25 nM, 30 min preincubation
// IC50 lookup, one value per entry

{"Compound": "Cc1cc(C(=O)N(C)C)nn1-c1ccc(Cn2c(=O)[nH]c3cnc(-c4ccccc4C(C)C)nc32)cc1 [Compound I-503]", "IC50": "< 50 nM"}
{"Compound": "CC(C)c1ccccc1-c1ncc2[nH]c(=O)n(Cc3ccc(C4OCC4(C)C)cc3)c2n1 (stereo not shown) [Compound I-216]", "IC50": "50 to 200 nM"}
{"Compound": "Cc1nc(-c2ccc(Cn3c(=O)[nH]c4cnc(-c5ccccc5C(C)C)nc43)cc2)no1 [Compound I-152]", "IC50": "< 50 nM"}
{"Compound": "CC(C)c1cc(F)ccc1-c1ncc2c(n1)n(Cc1ccc(-n3cccn3)cc1)c(=O)n2C [Compound I-10]", "IC50": "200 to 2000 nM"}
{"Compound": "Cc1cn(C2COC2)c(-c2ccc(Cn3c(=O)[nH]c4cnc(-c5cccc(F)c5C(C)C)nc43)cc2)n1 [Compound I-202]", "IC50": "< 50 nM"}
{"Compound": "COc1ccc(-c2cn(-c3ccc(Cn4c(=O)[nH]c5cnc(-c6ccccc6C(C)C)nc54)cc3)nn2)cc1 [Compound I-341]", "IC50": "200 to 2000 nM"}
{"Compound": "CC(C)c1ccccc1-c1ncc2[nH]c(=O)n(Cc3ccc(-c4cc(N5CCOCC5)ncn4)cc3)c2n1 [Compound I-250]", "IC50": "50 to 200 nM"}
